Provenance of the data: patent US5605895A

MIC values by entry
system: A. calcoaceticus 15473A

{"columns": ["Molecule", "MIC"],
 "data": [
  ["CC(C)(O/N=C(\\C(=O)N[C@@H]1C(=O)N2C(C(=O)[O-])=C(C[n+]3ccccc3)CS[C@H]12)c1csc(N)n1)C(=O)O [CAZ, Ceftazidime, reference compound]", "2 µg/mL"],
  ["Cn1c(N)n[n+]2c(SCC3=C(C(=O)[O-])N4C(=O)C(NC(=O)C(=NOC(C(=O)O)c5ccc(O)c(O)c5)c5csc(N)n5)[C@H]4SC3)nc(N)cc12 (stereo partly shown)", "0.5 µg/mL"],
  ["C[n+]1cc(CS(=O)(=O)O)c(N)nc1SCC1=C(C(=O)[O-])N2C(=O)C(NC(=O)/C(=N\\OC(C(=O)O)c3ccc(O)c(O)c3)c3csc(N)n3)[C@H]2SC1 (stereo partly shown)", "0.5 µg/mL"],
  ["Nc1cc[n+](N)c(SCC2=C(C(=O)[O-])N3C(=O)C(NC(=O)C(=NOC(C(=O)O)c4ccc(O)c(O)c4)c4csc(N)n4)C3SC2)n1 (stereo not shown)", "0.25 µg/mL"],
  ["C[n+]1ccc(N)nc1SCC1=C(C(=O)[O-])N2C(=O)C(NC(=O)/C(=N\\OC(C(=O)O)c3ccc(O)c(O)c3)c3csc(N)n3)[C@H]2SC1 (stereo partly shown)", "0.5 µg/mL"],
  ["Nc1nc(C(=NOC(C(=O)O)c2ccc(O)c(O)c2)C(=O)NC2C(=O)N3C(C(=O)[O-])=C(CSc4nc(N)c5c([n+]4N)CCC5)CSC23)cs1 (stereo not shown)", "0.25 µg/mL"],
  ["Cn1cc[n+]2c(SCC3=C(C(=O)[O-])N4C(=O)C(NC(=O)C(=NOC(C(=O)O)c5ccc(O)c(O)c5)c5csc(N)n5)C4SC3)nc(N)cc12 (stereo not shown)", "0.5 µg/mL"]
]}

* * *

system: E. coli 10536; experiment: Minimum inhibitory concentration, agar dilution; format: cell-based; settings: Escherichia coli; E. coli 10536; Muller-Hinton agar, 10^7 CFU per ml, 37° C., 20 hours; read-out: Minimum Inhibitory Concentration
Assay Metric: MIC (µg/mL)

{"columns": ["Compound", "Operator", "Measured Result"],
 "data": [
  ["C[n+]1cc(C(=O)O)c(N)nc1SCC1=C(C(=O)[O-])N2C(=O)C(NC(=O)/C(=N\\OC(C(=O)O)c3ccc(O)c(O)c3)c3csc(N)n3)[C@H]2SC1 (some centres unmarked)", "=", 0.031],
  ["C[n+]1cc(CS(=O)(=O)O)c(N)nc1SCC1=C(C(=O)[O-])N2C(=O)C(NC(=O)/C(=N\\OC(C(=O)O)c3ccc(O)c(O)c3)c3csc(N)n3)[C@H]2SC1 (some centres unmarked)", "=", 0.031],
  ["Cn1cc[n+]2c(SCC3=C(C(=O)[O-])N4C(=O)C(NC(=O)C(=NOC(C(=O)O)c5ccc(O)c(O)c5)c5csc(N)n5)C4SC3)nc(N)cc12 (centres unmarked)", "≤", 0.008],
  ["Cc1c(N)nc(SCC2=C(C(=O)[O-])N3C(=O)C(NC(=O)/C(=N\\OC(C(=O)O)c4ccc(O)c(O)c4)c4csc(N)n4)[C@H]3SC2)[n+](N)c1N (some centres unmarked)", "=", 0.013],
  ["Cn1c(N)n[n+]2c(SCC3=C(C(=O)[O-])N4C(=O)C(NC(=O)C(=NOC(C(=O)O)c5ccc(O)c(O)c5)c5csc(N)n5)[C@H]4SC3)nc(N)cc12 (some centres unmarked)", "=", 0.016]
]}
